Provenance of the data: the supplement of paper PMC9262897

- System: E. coli TESEC Alr+ wild-type control
- Test: growth (OD600 after 10 h); higher = more growth (less inhibition)
- Assay Setup: compound 0.1 mM; raw OD600 reference: median of DMSO wells 0.49, cell-free background 0.052
Counter-ions that a name gives are not always drawn.
Quantity: growth
Simply state the number, no unit and no words.

growth for COc1cc2c(cc1OC)C(=O)C(CC1CCN(Cc3ccccc3)CC1)C2 (centres undefined) [Donepezil hydrochloride] ?
0.56

Using the record for Nc1c2c(nc3ccccc13)CCCC2 [Tacrine hydrochloride] , report its growth.
0.513

Any idea what growth was measured for Cn1c(=O)c2[nH]cnc2n(C)c1=O [Aminophylline] ?
0.513

Given the compound NC(=O)c1cnccn1 [Pyrazinamide] , what is its reported growth?
0.538

Look up growth: CC(C)NCC(O)COc1ccc(COCCOC(C)C)cc1 (centres undefined) [Bisoprolol fumarate]
0.448

I have this compound here, CCN1CCN(C(=O)N[C@@H](C(=O)N[C@@H]2C(=O)N3[C@@H]2SC(C)(C)[C@@H]3C(=O)O)c2ccccc2)C(=O)C1=O [Piperacillin sodium salt] , and I need its recorded growth.
0.508

Entry Cc1onc(-c2ccccc2Cl)c1C(=O)N[C@@H]1C(=O)N2[C@@H]1SC(C)(C)[C@@H]2C(=O)O [Cloxacillin sodium salt] has what growth?
0.514

State the recorded growth for this entry: CC1(C)S[C@@H]2[C@H](NC(=O)Cc3ccccc3)C(=O)N2[C@H]1C(=O)O [Benzylpenicillin sodium]
0.533

Look up growth for this compound: CCN[C@H]1C[C@H](C)S(=O)(=O)c2sc(S(N)(=O)=O)cc21 [Dorzolamide hydrochloride]
0.47

====

- System: E. coli TESEC Alr+ wild-type control
- Test: growth (OD600 after 10 h); higher = more growth (less inhibition)
- Assay Setup: compound 0.1 mM; raw OD600 reference: median of DMSO wells 0.241, cell-free background 0.041
Counter-ions that a name gives are not always drawn.
Criterion: growth meeting or surpassing 0.2. Met: Fulfilled. Not met: Not fulfilled.

[
  {
    "Molecule": "CC[N+](CC)(CC)CCOc1cccc(OCC[N+](CC)(CC)CC)c1OCC[N+](CC)(CC)CC [Gallamine triethiodide]",
    "Group Label": "Fulfilled"
  }
]

Could you tell me if the measured growth of Nc1nc(=S)c2ncn([C@@H]3O[C@H](CO)[C@@H](O)[C@H]3O)c2[nH]1 reaches 0.2 or more?
Not fulfilled

Textbook exercise: given the entry COc1ccc([C@@H]2CC(=O)c3c(O)cc(O[C@@H]4O[C@H](CO[C@@H]5O[C@@H](C)[C@H](O)[C@@H](O)[C@H]5O)[C@@H](O)[C@H](O)[C@H]4O)cc3O2)cc1O , state whether its growth is greater than or equal to 0.2.
Fulfilled

Decide: is the reported value of growth for OCCN1C[C@H](O)[C@@H](O)[C@H](O)[C@H]1CO equal to or greater than 0.2?
Fulfilled

Could you tell me if the measured growth of CC(C)NCC(O)COc1cccc2[nH]ccc12 (configuration not stated) reaches 0.2 or more?
Fulfilled

Evaluate CN(C(=O)C(Cl)Cl)c1ccc(OC(=O)c2ccco2)cc1 [Diloxanide furoate] : growth at minimum 0.2?
Not fulfilled

# check: growth of CC(C)c1nc(CN(C)C(=O)N[C@H](C(=O)N[C@@H](Cc2ccccc2)C[C@H](O)[C@H](Cc2ccccc2)NC(=O)OCc2cncs2)C(C)C)cs1 is greater than or equal to 0.2
Not fulfilled

Tell me whether growth is at least 0.2 here: CCOC(=O)[C@H](CCc1ccccc1)N[C@@H](C)C(=O)N1Cc2ccccc2C[C@H]1C(=O)O [Quinapril HCl]
Fulfilled

Decide: growth of Oc1c(Cl)cc(Cl)c(Cl)c1Cc1c(O)c(Cl)cc(Cl)c1Cl >= 0.2?
Not fulfilled

Confirm if growth reported for the molecule CC(C)(Sc1cc(C(C)(C)C)c(O)c(C(C)(C)C)c1)Sc1cc(C(C)(C)C)c(O)c(C(C)(C)C)c1 is 0.2 or above.
Fulfilled

Evaluate CC(=O)OC(C)C[N+](C)(C)C (configuration not stated) [Methacholine chloride] : growth at minimum 0.2?
Fulfilled

Record CCN(CC)CC(=O)Nc1c(C)cccc1C [Lidocaine hydrochloride] ; criterion: growth no lower than 0.2. Met?
Fulfilled

====

- Test system: E. coli TESEC Alr+ wild-type control
- Test: growth (OD600 after 10 h); higher = more growth (less inhibition)
- Assay Setup: compound 0.1 mM; raw OD600 reference: median of DMSO wells 0.49, cell-free background 0.052
Where a name gives a salt, the structure may show the parent alone.
Quantity: growth
Write the number on its own, no unit after it.

Example entries begin here.
[
  {
    "Compound": "NCCc1ccc(O)c(O)c1 [Dopamine hydrochloride]",
    "growth": 0.624
  },
  {
    "Compound": "CC1COc2c(N3CCN(C)CC3)c(F)cc3c(=O)c(C(=O)O)cn1c23 (centres undefined)",
    "growth": 0.0509
  },
  {
    "Compound": "COc1cc(C(=O)NS(=O)(=O)c2ccccc2C)ccc1Cc1cn(C)c2ccc(NC(=O)OC3CCCC3)cc12",
    "growth": 0.189
  }
]

Look up growth for this compound: Clc1ccc(CSC(Cn2ccnc2)c2ccc(Cl)cc2Cl)cc1 (centres undefined) [Sulconazole nitrate]
0.0607

Given the entry CN1CCCN=C1/C=C/c1cccc(O)c1 [Oxantel pamoate] , report its measured growth.
0.496

For CC1(C)[C@@H](OC(=O)CCC(=O)O)CC[C@]2(C)[C@H]3C(=O)C=C4[C@@H]5C[C@@](C)(C(=O)O)CC[C@]5(C)CC[C@@]4(C)[C@]3(C)CC[C@@H]12 [Carbenoxolone disodium salt] , what is its reported growth?
0.426

Form field: reported growth of CC[C@H](C)C(=O)O[C@H]1C[C@H](O)C=C2C=C[C@H](C)[C@H](CC[C@@H](O)C[C@@H](O)CC(=O)O)[C@H]21
0.455

Look up growth: OCCOCCN1CCN(C(c2ccccc2)c2ccc(Cl)cc2)CC1 (centres undefined) [Hydroxyzine dihydrochloride]
0.45

What measured growth goes with CCCNC(C)C(=O)Nc1ccccc1C (centres undefined) [Prilocaine hydrochloride] ?
0.493

====

- Test system: E. coli TESEC Mtb DapB
- Test: growth (OD600 after 10 h); higher = more growth (less inhibition)
- Assay Setup: arabinose induction (level): Low; compound 0.1 mM; raw OD600 reference: median of DMSO wells 0.227, cell-free background 0.041
Structures can show the parent of a compound that is named as a salt.
Quantity: growth

Examples with their reported growth follow.
[
  {
    "Compound": "CC1=C(/C=C/C(C)=C/C=C/C(C)=C\\C(=O)O)C(C)(C)CCC1",
    "Value": 0.195
  },
  {
    "Compound": "O=C(O)/C=C/c1ccc(Cn2ccnc2)cc1 [Ozagrel hydrochloride]",
    "Value": 0.207
  },
  {
    "Compound": "CCN(CC)Cc1cc(Nc2ccnc3cc(Cl)ccc23)ccc1O [Amodiaquin dihydrochloride dihydrate]",
    "Value": 0.28
  }
]

Could you now consider this next compound?
growth lookup needed for CN(C)CCOC(c1ccccc1)c1ccccc1.Cn1c(=O)c2[nH]c(Cl)nc2n(C)c1=O [Dimenhydrinate] , thanks.
0.197

====

- Test system: E. coli TESEC Mtb Alr
- Test: growth (OD600 after 10 h); higher = more growth (less inhibition)
- Assay Setup: arabinose 100 nM; compound 0.1 mM; raw OD600 reference: median of DMSO wells 0.413, cell-free background 0.052
Structures can show the parent of a compound that is named as a salt.
Entries and their growth
I only need the number, thanks.

Before answering, review these 6 worked examples.
[
  {
    "Molecule": "CO[C@H]1/C=C/O[C@@]2(C)Oc3c(C)c(O)c4c(O)c(c(/C=N/N5CCN(C6CCCC6)CC5)c(O)c4c3C2=O)NC(=O)/C(C)=C\\C=C\\[C@H](C)[C@H](O)[C@@H](C)[C@@H](O)[C@@H](C)[C@H](OC(C)=O)[C@@H]1C",
    "Test System": "E. coli TESEC Mtb Alr",
    "Quantity": "growth",
    "Value": 0.0847
  },
  {
    "Molecule": "CCN1CCCC1CNC(=O)c1cc(S(N)(=O)=O)ccc1OC (stereo not given) [Sulpiride]",
    "Test System": "E. coli TESEC Mtb Alr",
    "Quantity": "growth",
    "Value": 0.419
  },
  {
    "Molecule": "CC(C)(C)c1ccc(C(O)CCCN2CCC(C(O)(c3ccccc3)c3ccccc3)CC2)cc1 (stereo not given)",
    "Test System": "E. coli TESEC Mtb Alr",
    "Quantity": "growth",
    "Value": 0.0737
  },
  {
    "Molecule": "O=C(O)COC(=O)Cc1ccccc1Nc1c(Cl)cccc1Cl",
    "Test System": "E. coli TESEC Mtb Alr",
    "Quantity": "growth",
    "Value": 0.352
  },
  {
    "Molecule": "OC(CCN1CCCCC1)(c1ccccc1)C1CC2C=CC1C2 (stereo not given) [Biperiden hydrochloride]",
    "Test System": "E. coli TESEC Mtb Alr",
    "Quantity": "growth",
    "Value": 0.415
  },
  {
    "Molecule": "Clc1ccc(COC(Cn2ccnc2)c2ccc(Cl)cc2Cl)cc1 (stereo not given) [Econazole nitrate]",
    "Test System": "E. coli TESEC Mtb Alr",
    "Quantity": "growth",
    "Value": 0.059
  }
]

# input molecule: COc1cc2nc(N(C)CCCNC(=O)C3CCCO3)nc(N)c2cc1OC (stereo not given) [Alfuzosin hydrochloride] ; wanted: its growth
0.4

Looking for the measured growth of Cc1ccc(NC(=O)c2ccc(CN3CCN(C)CC3)cc2)cc1Nc1nccc(-c2cccnc2)n1 , can you help?
0.419

Data request, read-out growth, for C[C@H](N)[C@H](O)c1cccc(O)c1 [Metaraminol bitartrate]
0.426
